Molecular target: ERα LBD (WT-Q, his-tagged) (Homo sapiens, UniProt P03372, Q375E)
Sequence (P03372 302-552 Q375E limits assumed): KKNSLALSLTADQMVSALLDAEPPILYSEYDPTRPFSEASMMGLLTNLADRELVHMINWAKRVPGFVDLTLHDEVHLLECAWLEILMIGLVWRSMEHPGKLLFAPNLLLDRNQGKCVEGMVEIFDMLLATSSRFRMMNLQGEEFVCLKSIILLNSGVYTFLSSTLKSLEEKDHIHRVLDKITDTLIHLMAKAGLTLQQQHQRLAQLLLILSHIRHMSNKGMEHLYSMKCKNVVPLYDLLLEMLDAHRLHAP
Test: competitive radiometric binding vs [3H]E2
ATTRIBUTE_MEASURED: Ki (nM)
Field format: number, assumed nM, no unit text.

What Ki value was documented for this molecule, C[C@]12C[C@H](CCl)[C@@H]3c4ccc(O)cc4CC[C@H]3[C@@H]1CC[C@@H]2O [CME] ?
0.35

----------
biological target: ERα LBD (WT-Q, his-tagged) (Homo sapiens, UniProt P03372, Q375L); experiment: competitive radiometric binding vs [3H]E2
ATTRIBUTE_MEASURED: Ki (nM)
Field format: number, assumed nM, no unit text.

Example cases with answers are listed next.
>>> observed_value("CC[C@H]1C[C@]2(C)[C@@H](O)CC[C@H]2[C@@H]2CCc3cc(O)ccc3[C@@H]12 [Et-E2]")
0.16
>>> observed_value("CC[C@H](c1ccc(O)cc1)[C@@H](CC)c1ccc(O)cc1")
0.07

Next:
What Ki value was documented for this molecule, C[C@]12C[C@H](CCl)[C@@H]3c4ccc(O)cc4CC[C@H]3[C@@H]1CC[C@@H]2O ?
0.22
